STUDY TARGET: T1, cynomolgus monkey BCMA (cynomolgus monkey, UniProt A0A2K5UD97 1-53)
T1 construct: Soluble analyte in SPR; construct not described; also called cyBCMA; Cyno BCMA
T1 sequence (A0A2K5UD97 entry or part of it): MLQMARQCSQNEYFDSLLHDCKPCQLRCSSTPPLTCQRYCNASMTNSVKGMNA
MEASUREMENT DESCRIPTION: SPR, IgG on chip, cyBCMA analyte
OBSERVATION TYPE: Kd (nM)
One number for each entry, in nM.

Past entries and their recorded results:
>  <BINDER>
A02_Rd4_6nM_C03 (antibody, V domains shown, IgG) VH: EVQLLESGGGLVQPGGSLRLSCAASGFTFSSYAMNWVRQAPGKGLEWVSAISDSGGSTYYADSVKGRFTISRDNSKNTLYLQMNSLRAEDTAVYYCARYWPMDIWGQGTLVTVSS VL: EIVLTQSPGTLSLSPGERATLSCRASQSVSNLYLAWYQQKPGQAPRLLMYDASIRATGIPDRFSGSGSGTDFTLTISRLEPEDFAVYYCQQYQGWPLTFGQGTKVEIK

>  <OBSERVATION TYPE>
Kd

>  <REPORTED MEASUREMENT>
0.158

$$$$
>  <BINDER>
A02_Rd4_6nM_C01 (antibody, V domains shown, IgG) VH: EVQLLESGGGLVQPGGSLRLSCAASGFTFSSYAMNWVRQAPGKGLEWVSAITASGGSTYYADSVKGRFTISRDNSKNTLYLQMNSLRAEDTAVYYCARYWPMSLWGQGTLVTVSS VL: EIVLTQSPGTLSLSPGERATLSCRASQSVSAYYLAWYQQKPGQAPRLLMYDASIRATGIPDRFSGSGSGTDFTLTISRLEPEDFAVYYCQQYERWPLTFGQGTKVEIK

>  <OBSERVATION TYPE>
Kd

>  <REPORTED MEASUREMENT>
0.401

$$$$

Next item in the queue.
Request: Requested read-out: Kd. Entry: COMBO_Rd4_6nM_C21 (antibody, V domains shown, IgG) VH: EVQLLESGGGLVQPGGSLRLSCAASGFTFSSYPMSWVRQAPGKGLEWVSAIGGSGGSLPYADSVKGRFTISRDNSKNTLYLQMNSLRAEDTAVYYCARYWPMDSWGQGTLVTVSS VL: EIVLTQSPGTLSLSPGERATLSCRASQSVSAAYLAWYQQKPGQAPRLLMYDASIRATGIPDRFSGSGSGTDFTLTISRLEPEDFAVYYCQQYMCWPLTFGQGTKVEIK
Result: 0.078
